Biological target: ER (Homo sapiens, UniProt P03372)
Sequence (P03372 1-595): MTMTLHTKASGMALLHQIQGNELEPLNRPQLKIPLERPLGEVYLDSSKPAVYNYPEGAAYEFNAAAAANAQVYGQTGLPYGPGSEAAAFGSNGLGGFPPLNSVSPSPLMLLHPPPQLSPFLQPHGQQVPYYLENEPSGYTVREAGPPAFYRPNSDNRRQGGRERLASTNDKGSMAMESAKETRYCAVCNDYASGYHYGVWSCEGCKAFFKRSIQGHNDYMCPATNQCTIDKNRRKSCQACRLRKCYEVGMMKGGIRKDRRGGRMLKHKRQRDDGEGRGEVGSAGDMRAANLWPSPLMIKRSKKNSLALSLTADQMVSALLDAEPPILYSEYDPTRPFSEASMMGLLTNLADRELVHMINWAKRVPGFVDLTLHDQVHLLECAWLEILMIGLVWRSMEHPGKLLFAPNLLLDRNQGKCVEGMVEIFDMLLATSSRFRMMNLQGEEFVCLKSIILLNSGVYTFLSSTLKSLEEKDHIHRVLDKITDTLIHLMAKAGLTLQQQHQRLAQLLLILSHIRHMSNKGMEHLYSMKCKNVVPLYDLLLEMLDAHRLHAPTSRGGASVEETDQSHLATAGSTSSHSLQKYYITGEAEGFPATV
Measure name: pKi
pKi (log units): -log10 of the concentration in mol/L.

Prompt: Requested read-out: pKi. Entry: COc1cccc2c1-c1ccc3c(c1C(Cc1ccc(F)cc1)O2)C(C)=CC(C)(C)N3 (stereo not shown) [YJH08]
Response: 4.72
